system: VRK2; conditions: concentration: 1 μM, replicates: in singlicate; n = 1;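 note: KINOMEscan kinase panel screen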
Quantity name: %Inh (%)

> print(dat)
                                    compound  experimental.target  recorded.result
 1  COc1ccc(Nc2nccc(N3CCC(NC(=O)Nc4ccc5c(c4)OCO5)C3)n2)cc1 (stereo not shown)                 VRK2                0
 2               CCC(CC)(CC)n1cnc2c(N)ncnc21                 VRK2                0
 3  Cc1cccc(-c2nc(Nc3ccc4[nH]nnc4c3)c3ccccc3n2)n1                 VRK2               20
 4      Nc1nc(-c2cccnc2)c(-c2ccnc3ccccc23)s1                 VRK2               16
 5      Nc1nc(-c2ccccn2)c(-c2ccnc3ccccc23)s1                 VRK2               62
 6  Cl.c1ccc(Cn2ccc3cc(Nc4ncnc5ccccc45)ccc32)cc1                 VRK2                0
 7  Cc1ccc(O)cc1Nc1cc(C(F)(F)F)nc2ccc(-c3ccncc3)cc12                 VRK2                0
 8  Fc1cccc(COc2ccc(Nc3ncnc4cc[nH]c34)cc2Cl)c1                 VRK2               13
 9   Clc1cc(Nc2ncnc3cc[nH]c23)ccc1OCc1ccccn1                 VRK2                9
10  OCCOCCn1ccc2ncnc(Nc3ccc(Oc4cccc(Cl)c4)c(Cl)c3)c21                 VRK2               46
11  Cn1cc(-c2ccc3c(c2)CCN3C(=O)Cc2cccc(C(F)(F)F)c2)c2c(N)ncnc21                 VRK2               20
12  COc1cc2c(Nc3cccc(NC(=O)c4ccccc4)c3)ncnc2cc1OCCCN1CCOCC1                 VRK2               10
13    Oc1ccc2ncnc(Nc3ccc(OCc4ccccc4)cc3)c2c1                 VRK2                0
14  Cn1ccc2ncnc(Oc3ccc(NC(=O)Nc4cccnc4)c(Cl)c3)c21                 VRK2                0
15  COc1ccc(Nc2nccc(N3CCC(NC(=O)c4cccc(NC(C)=O)c4)C3)n2)cc1 (stereo not shown)                 VRK2               41
16    Clc1cccc(-c2nc(Nc3ccncc3)c3ccccc3n2)c1                 VRK2                0
17  FC(F)(F)c1ccc(-c2nn3ncccc3c2-c2ccnc(Nc3cccc(C(F)(F)F)c3)n2)cc1                 VRK2                0
18  Nc1nccc2scc(-c3ccc4c(c3)CCN4C(=O)Cc3cc(F)ccc3F)c12                 VRK2                0
19  C[C@@H]1CCN(C(=O)CO)C[C@@H]1N(C)c1ncnc2[nH]ccc12                 VRK2                0

----------
system: QSK; settings: concentration: 1 μM, replicates: in singlicate; n = 1
Recorded %Inh for the following compounds
Quantity name: %Inh (%)

> print(dat)
                                 mol.smiles  quantity.name  recorded.result
1  CCc1nc(-c2cccc(C)c2)c(-c2ccnc(NC(=O)c3ccccc3)c2)s1           %Inh                0
2  Cl.Cl.c1ccc(-c2cc3ccncc3cc2OC2CCNCC2)cc1           %Inh                7
3    Oc1ccc2ncnc(Nc3ccc(OCc4ccccc4)cc3)c2c1           %Inh               10
4  Cc1ccc(O)cc1Nc1cc(C(F)(F)F)nc2ccc(-c3ccncc3)cc12           %Inh                0
5  Fc1cccc(COc2ccc(Nc3ncnc4sc(-c5ccc[nH]5)cc34)cc2Cl)c1           %Inh                0

----------
system: PIK3CD; conditions: concentration: 1 μM, replicates: in singlicate; n = 1
Quantity name: %Inh (%)

> print(dat)
                                 mol.smiles  recorded.result
1   O=C(Nc1ccccc1)Nc1ccc(Oc2ccc3nccn3n2)cc1                0
2  CN1CCC(n2cnc(-c3ccc(F)cc3)c2-c2ccnc(NC3CCNCC3)n2)CC1                0
3  Cl.Fc1ccccc1COc1ccc(Nc2ncnc3ccc(-c4nnc(C(F)(F)F)o4)cc23)cc1Cl                0
4                CCn1c(-c2ccncc2)nc2cnccc21                0
5   CSc1ccc(NC2=C(c3ccccc3Cl)C(=O)NC2=O)cc1                0
6       CC(C)(C)c1ccc(-n2cnc3c(N)ncnc32)cc1               28
7  COc1ccc(NC(=O)c2ccc(-c3cc(-c4nnc(C)o4)ccc3C)cc2)cc1                0
8  Fc1ccc(-c2ncn(CCCNCc3ccccc3)c2-c2ccncc2)cc1                3
9  Cl.Cl.c1ccc(-c2cc3ccncc3cc2OC2CCNCC2)cc1               30

----------
test system: SIK2; conditions: concentration: 1 μM, replicates: in singlicate; n = 1
%Inh by entry:
Quantity name: %Inh

> print(dat)
                                    compound  experimental.target  recorded.result
 1  Nc1nc(-c2ccc3c(N)n[nH]c3c2)cc(N2CCC[C@@H](C(=O)Nc3ccccc3)C2)n1.O=C(O)C(F)(F)F.O=C(O)C(F)(F)F [GSK2288359]                 SIK2               0%
 2  CC(=O)Nc1n[nH]c2ncc(-c3ccccc3)cc12 [SB-548492]                 SIK2              12%
 3  Nc1nccc2scc(-c3ccc4c(c3)CCN4C(=O)Cc3cc(F)ccc3F)c12 [GSK2587663]                 SIK2               0%
 4  O=c1cc(N2CCOCC2)nc2n(Cc3cccc(Cl)c3)ccn12 [GSK2296823]                 SIK2               9%
 5  Cc1cccc(-c2nc(Nc3ccc4[nH]nnc4c3)c3ccccc3n2)n1 [GW867587]                 SIK2               0%
 6  CCc1nc(-c2cccc(N(C)S(=O)(=O)c3ccccc3)c2)c(-c2ccnc(Nc3ccc(N4CCN(C(C)=O)CC4)nc3)n2)s1 [GSK1645895]                 SIK2               0%
 7  O=C(CCO)NCCn1ccc2ncnc(Nc3ccc(Oc4cccc(C(F)(F)F)c4)c(Cl)c3)c21                 SIK2              16%
 8  COc1ccc(NC(=O)c2ccc(-c3cc(-c4nnc(C)o4)ccc3C)cc2)cc1 [GW595885]                 SIK2               0%
 9   CCC(CC)(CC)n1cnc2c(N)ncnc21 [SKF-97620]                 SIK2               1%
10   Clc1cc(Nc2ncnc3cc[nH]c23)ccc1OCc1ccccn1                 SIK2               8%
11  FC(F)(F)c1ccc(-c2cc(-c3c[nH]nc3-c3ccccn3)ccn2)cc1 [GW599550]                 SIK2               0%
12  Cl.Fc1ccccc1COc1ccc(Nc2ncnc3ccc(-c4nnc(C(F)(F)F)o4)cc23)cc1Cl [GW424170]                 SIK2               0%
13  O=C(c1ccc(-c2cc(-c3c[nH]nc3-c3ccccn3)ccn2)cc1)N1CCCC1 [GW792479]                 SIK2              12%
14  Cc1ccc(NC(=O)c2cccc(C#N)c2)cc1-c1ccc(C(=O)Nc2ccncc2)cc1 [GSK1398463]                 SIK2              15%
15  Fc1cccc(COc2ccc(Nc3ncnc4sc(-c5ccc[nH]5)cc34)cc2Cl)c1 [GW707818]                 SIK2               0%
16  CCCc1ccc(S(=O)(=O)NC2CCN(c3ccnc(Nc4ccc(OC)cc4)n3)C2)cc1 (centres unmarked) [GSK1379737]                 SIK2               0%
17  Nc1nc(-c2cccnc2)c(-c2ccnc3ccccc23)s1 [GW684083]                 SIK2               0%
